- study target: cloned human NR1/NR2B ion channels (Homo sapiens (Human), UniProt Q05586+Q13224)
- Sequence (Q13224 27-1484, other chains not shown): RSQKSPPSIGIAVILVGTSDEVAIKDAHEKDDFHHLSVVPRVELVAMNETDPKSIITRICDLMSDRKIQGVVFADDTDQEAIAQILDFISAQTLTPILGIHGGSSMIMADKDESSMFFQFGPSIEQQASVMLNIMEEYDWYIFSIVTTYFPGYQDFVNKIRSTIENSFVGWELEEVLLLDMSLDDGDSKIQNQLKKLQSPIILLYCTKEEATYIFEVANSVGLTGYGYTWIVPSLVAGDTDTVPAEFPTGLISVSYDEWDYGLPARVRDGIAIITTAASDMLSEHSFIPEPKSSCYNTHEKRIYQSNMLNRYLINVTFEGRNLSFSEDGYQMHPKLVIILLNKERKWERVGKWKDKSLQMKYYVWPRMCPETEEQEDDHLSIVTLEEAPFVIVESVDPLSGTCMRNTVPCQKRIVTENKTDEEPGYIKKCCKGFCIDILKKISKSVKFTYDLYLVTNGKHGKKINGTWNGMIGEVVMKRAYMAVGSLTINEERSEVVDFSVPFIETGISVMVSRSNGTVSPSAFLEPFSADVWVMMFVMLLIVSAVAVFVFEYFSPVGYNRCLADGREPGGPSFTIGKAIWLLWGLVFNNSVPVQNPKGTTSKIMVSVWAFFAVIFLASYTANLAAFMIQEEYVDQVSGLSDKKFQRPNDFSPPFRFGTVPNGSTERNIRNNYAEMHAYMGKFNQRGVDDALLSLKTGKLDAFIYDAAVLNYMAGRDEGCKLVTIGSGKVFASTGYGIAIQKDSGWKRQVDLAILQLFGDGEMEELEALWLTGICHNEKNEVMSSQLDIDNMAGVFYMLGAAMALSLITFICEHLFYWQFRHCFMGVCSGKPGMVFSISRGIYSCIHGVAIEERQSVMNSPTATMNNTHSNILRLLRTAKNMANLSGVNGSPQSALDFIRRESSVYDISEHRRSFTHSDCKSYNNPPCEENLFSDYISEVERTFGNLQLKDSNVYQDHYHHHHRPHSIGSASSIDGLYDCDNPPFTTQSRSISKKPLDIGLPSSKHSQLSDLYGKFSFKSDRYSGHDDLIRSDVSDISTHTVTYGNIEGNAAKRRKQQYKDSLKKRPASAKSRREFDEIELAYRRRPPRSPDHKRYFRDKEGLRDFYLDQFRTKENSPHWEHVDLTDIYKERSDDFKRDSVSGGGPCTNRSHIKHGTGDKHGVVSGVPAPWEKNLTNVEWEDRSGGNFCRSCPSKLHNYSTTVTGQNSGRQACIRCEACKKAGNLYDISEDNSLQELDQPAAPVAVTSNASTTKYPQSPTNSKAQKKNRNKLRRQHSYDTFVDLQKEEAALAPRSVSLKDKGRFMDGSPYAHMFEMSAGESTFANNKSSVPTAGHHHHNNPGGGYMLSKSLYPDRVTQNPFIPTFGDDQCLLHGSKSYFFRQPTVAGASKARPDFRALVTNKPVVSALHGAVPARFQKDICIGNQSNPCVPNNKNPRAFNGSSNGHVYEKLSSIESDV
- assay explanation: HNR2BC: effects of test articles on cloned human NR1/NR2B ion channels expressed in mammalian cells (FLIPR calcium flux)
- Type: cell-based
- experimental conditions: cloned human NR1/NR2B, Table 5
Counter-ions that a name gives are not always drawn.
readout: log10 IC50 (log10 of the value in nM)
Hello, just confirming the data are log10 of IC50 with units of nM.

What does the record list as log10 IC50 for `O=C(Cn1cc(F)c2ncc(-c3cc(F)c(F)c(F)c3)cc21)C1CC1` ?
1.50

Repeat for the following compound: `O=C(Cn1ccc2ncc(-c3cc(F)c(F)c(F)c3)cc21)NC1CC1`
1.80

Thanks! And `O=C(Cn1cc(Cl)c2ncc(-c3ccc(F)cc3)cc21)N1CCCC1` ?
1.80

// repeat for Cc1cc(-c2cnc3ccn(CC4CC4)c3c2)ccc1F [Example 174, trifluoroacetate salt] and report
2.20

Entry to check: Cc1cc(-c2cnc3ccn(CC(=O)N4CCOCC4C)c3c2)ccc1F (racemic) [Example 210, trifluoroacetate salt]
2.60

Repeat for the following compound: `Cc1cc2ncc(-c3ccc(F)cc3)cc2n1CC(=O)NC1CC1`
3.70

Repeat for the following compound: `O=C(Cn1ccc2ncc(-c3ccc(F)cc3)cc21)N1CC(CO)C1`
2.50

Try `O=C(CC1CC1)n1ccc2ncc(-c3ccc(F)c(F)c3)cc21` next.
1.70

Similarly, `CCc1cccc(-c2cnc3ccn(CC(=O)NC4CC4)c3c2)c1` ?
1.50

* * *

Could you please report measured log10 of IC50 for the items listed next?
- study target: cloned human NR1/NR2B ion channels (Homo sapiens (Human), UniProt Q05586+Q13224)
- assay explanation: HNR2BC: effects of test articles on cloned human NR1/NR2B ion channels expressed in mammalian cells (FLIPR calcium flux)
- Type: cell-based
- experimental conditions: cloned human NR1/NR2B, Table 5
Structures can show the parent of a compound that is named as a salt.
The figures below represent log10 of IC50, where IC50 is stated in nM.

Requested field: log10 of IC50. Item: CN(C)C(=O)Cn1cc(F)c2ncc(-c3ccc(F)cc3)cc21 [Example 98]
1.70

Please do the same for COC1CCN(C(=O)Cn2ccc3ncc(-c4ccc(F)c(C)c4)cc32)CC1 [Example 190, trifluoroacetate salt] as well.
2.40

Then O=C(Cn1cc(F)c2ncc(-c3cccc(C(F)F)c3)cc21)C1CC1 [Example 321] ?
1.30

Please give the result for O=C(Cn1ccc2ncc(-c3cccc(C(F)(F)F)c3)cc21)N1CC(F)C1 [Example 265, trifluoroacetate salt] too.
2.00

Same question for Cc1cc(-c2cnc3ccn(CC(=O)N4CCCC(F)C4)c3c2)ccc1F (racemic) [Example 199, trifluoroacetate salt] please.
2.30

O=C(Cn1cc(Cl)c2ncc(-c3ccc(F)c(F)c3)cc21)N1CC(F)C1 [Example 30] ?
1.30

O=C(Cn1ccc2ncc(-c3cccc(F)c3)cc21)N1CCC1 [Example 72] ?
2.40

* * *

- study target: cloned human NR1/NR2B ion channels (Homo sapiens (Human), UniProt Q05586+Q13224)
- assay explanation: HNR2BC: effects of test articles on cloned human NR1/NR2B ion channels expressed in mammalian cells (FLIPR calcium flux)
- Format: cell-based
- experimental conditions: cloned human NR1/NR2B ion channels, Table 5
Kindly state IC50 for each of the entries shown.
Number only, in µM; omit the unit.

// query IC50 value for entry `CN(C)C(=O)Cn1cc(Cl)c2ncc(-c3ccc(F)c(C(F)(F)F)c3)cc21`
0.2

Now the molecule `CCN(C)C(=O)Cn1cc(C)c2ncc(-c3cc(F)cc(F)c3)cc21`
0.126

Now the molecule `O=C(Cn1cc(Cl)c2ncc(-c3cccc(Cl)c3F)cc21)N1CC(F)C1`
0.0398

Next molecule up: `CN(C)C(=O)Cn1cc(F)c2ncc(-c3cc(Cl)cs3)cc21`
0.501

Also `Cc1ccc(-c2cnc3c(C)cn(CC(=O)N4CCC4)c3c2)s1` , if possible.
0.0501

Same read-out for `O=C(Cn1cc(Cl)c2ncc(-c3cc(F)cc(F)c3)cc21)N1CCC1` ?
0.0501

Check `Cc1cc(-c2cnc3c(C)cn(CC(=O)N4CC(F)(F)C4)c3c2)ccc1F` too.
0.0316

And then `Cc1c(F)ccc(-c2cnc3ccn(CC(=O)N4CCC4)c3c2)c1F` , what is it?
0.0251

Then `Cc1cn(CC(=O)N(C)C)c2cc(-c3cccc(C(F)(F)F)c3)cnc12` ?
0.0794

* * *

I'd be grateful if you could share measured IC50 for these entries.
- study target: cloned human NR1/NR2B ion channels (Homo sapiens (Human), UniProt Q05586+Q13224)
- assay explanation: HNR2BC: effects of test articles on cloned human NR1/NR2B ion channels expressed in mammalian cells (FLIPR calcium flux)
- Type: cell-based
- experimental conditions: cloned human NR1/NR2B ion channels, Table 5
State just the number; it will be interpreted in nM.

Observed IC50 on cloned human NR1/NR2B ion channels (Homo sapiens (Human), UniProt Q05586+Q13224) for `Cc1cn(CC(=O)N2CC(F)C2)c2cc(-c3ccccc3F)cnc12` , please.
126

`O=C(Cn1cc(Cl)c2ncc(-c3ccc(F)c(F)c3F)cc21)N1CC(F)C1` ?
20

Input `CCc1ccc(-c2cnc3c(Cl)cn(CC(=O)N(C)C)c3c2)s1`
631

Lookup `FC(F)(F)c1cccc(-c2cnc3c(Cl)cn(Cc4cccnn4)c3c2)c1`
25.1

Can you check `Cc1cc(-c2cnc3ccn(CC(=O)N(C)C)c3c2)c(C)s1` next?
31.6

Subsequent entry: `O=C(Cn1cc(Cl)c2ncc(-c3cccc(Cl)c3)cc21)N1CC(F)C1`
12.6

Repeat for the following compound: `CCN(C)C(=O)Cn1cc(C)c2ncc(-c3ccc(F)c(F)c3)cc21`
25.1

Same question for `O=C(Cn1ccc2ncc(-c3cccc(Cl)c3)cc21)N1CCC1` please.
100

Same read-out for `CN(C)C(=O)Cn1cc(F)c2ncc(-c3cccc(F)c3)cc21` ?
39.8

Same question, `CN(C)C(=O)Cn1cc(F)c2ncc(-c3ccc(F)c(F)c3F)cc21` this time
39.8

What do you get for `CN(C)C(=O)Cn1ccc2ncc(-c3cccc(F)c3)cc21` ?
39.8

Queued: `CN(C)C(=O)Cn1cc(F)c2ncc(-c3cccc(Cl)c3)cc21`
15.8

One more compound: `O=C(Cn1cc(F)c2ncc(-c3ccc(F)c(Cl)c3)cc21)N1CCC1`
25.1

Try `O=C(Cn1cc(Cl)c2ncc(-c3cccc(C(F)(F)F)c3F)cc21)N1CCC1` next.
79.4

Moving on to `CCN(C)C(=O)Cn1ccc2ncc(-c3ccc(F)c(C)c3F)cc21`
15.8

What do we get for `Cc1cc(-c2cnc3c(Cl)cn(CC(=O)N(C)C)c3c2)sc1Cl` ?
10

Queued: `Cc1c(F)ccc(-c2cnc3c(C)cn(CC(=O)N4CC(F)C4)c3c2)c1F`
39.8

Cool, now `Cc1c(F)ccc(-c2cnc3c(C)cn(CC(=O)N(C)C)c3c2)c1F`
100

Then `CN(C)C(=O)Cn1cc(Cl)c2ncc(-c3cccc(C(F)(F)F)c3F)cc21` ?
100

* * *

- study target: cloned human NR1/NR2B ion channels (Homo sapiens (Human), UniProt Q05586+Q13224)
- assay explanation: HNR2BC: effects of test articles on cloned human NR1/NR2B ion channels expressed in mammalian cells (FLIPR calcium flux)
- Assay type: cell-based
- experimental conditions: cloned human NR1/NR2B, Table 5
readout: pIC50
Form field (numeric): enter value without unit.

Could you share which pIC50 value was measured for `CN(C)C(=O)Cn1cc(Cl)c2ncc(-c3cccc(C(F)F)c3)cc21` ?
7.3

Let us now turn to `CC(=O)CCn1ccc2ncc(-c3ccc(F)cc3)cc21`
7.9

Next compound up: `O=C(Cn1cc(Cl)c2ncc(-c3ccc(F)c(F)c3)cc21)N1CC(F)(F)C1`
7.8

Continue with `Cc1csc(-c2cnc3ccn(Cc4ccc(C(F)(F)F)o4)c3c2)c1`
7.7

Likewise for `Cc1csc(-c2cnc3ccn(Cc4cccnn4)c3c2)c1` ?
7.7

Param item: `O=C(Cn1cc(Cl)c2ncc(-c3ccc(F)cc3)cc21)N1CCC1`
7.6

* * *

For each record, write down the corresponding IC50.
- study target: cloned human NR1/NR2B ion channels (Homo sapiens (Human), UniProt Q05586+Q13224)
- assay explanation: HNR2BC: effects of test articles on cloned human NR1/NR2B ion channels expressed in mammalian cells (FLIPR calcium flux)
- Assay type: cell-based
- experimental conditions: cloned human NR1/NR2B, Table 5
Structures can show the parent of a compound that is named as a salt.
Give a bare numeral; the unit nM is implied.

Request - read-out IC50 | tested on cloned human NR1/NR2B ion channels (Homo sapiens (Human), UniProt Q05586+Q13224) | molecule COC1CN(C(=O)Cn2ccc3ncc(-c4ccc(F)cc4)cc32)C1 [Example 207]
316

Note, next up: O=C(Cn1ccc2ncc(-c3ccccc3)cc21)N1CCC1 [Example 354]
31.6

Next: Cc1cc(-c2cnc3ccn(CC(=O)C(C)(C)C)c3c2)ccc1F [Example 141]
398

What would you report for O=C(Cn1ccc2ncc(-c3ccc(F)c(C(F)(F)F)c3)cc21)N1CCC1 [Example 104] ?
31.6

// query: COCCn1ccc2ncc(-c3ccc(F)c(C)c3)cc21 [Example 291, trifluoroacetate salt]
79.4

Every entry's value here was drawn from patent US10377753B2.
